Where do the numbers come from? From BindingDB's records for doi:10.1021/jm00092a001.

Assay: The compound was tested for inhibitory activity against 5-Lipoxygenase in guinea pig polymorphonuclear leukocytes
Readout Label: IC50 (nM)

mol=Cc1ccc(C)n1-c1ccc(/C=C/CC(=O)N(C)O)cc1 measured_result=600
